# MEASUREMENT TARGET: P-selectin (UniProt P16109 42-771)
# Sequence (P16109 42-771): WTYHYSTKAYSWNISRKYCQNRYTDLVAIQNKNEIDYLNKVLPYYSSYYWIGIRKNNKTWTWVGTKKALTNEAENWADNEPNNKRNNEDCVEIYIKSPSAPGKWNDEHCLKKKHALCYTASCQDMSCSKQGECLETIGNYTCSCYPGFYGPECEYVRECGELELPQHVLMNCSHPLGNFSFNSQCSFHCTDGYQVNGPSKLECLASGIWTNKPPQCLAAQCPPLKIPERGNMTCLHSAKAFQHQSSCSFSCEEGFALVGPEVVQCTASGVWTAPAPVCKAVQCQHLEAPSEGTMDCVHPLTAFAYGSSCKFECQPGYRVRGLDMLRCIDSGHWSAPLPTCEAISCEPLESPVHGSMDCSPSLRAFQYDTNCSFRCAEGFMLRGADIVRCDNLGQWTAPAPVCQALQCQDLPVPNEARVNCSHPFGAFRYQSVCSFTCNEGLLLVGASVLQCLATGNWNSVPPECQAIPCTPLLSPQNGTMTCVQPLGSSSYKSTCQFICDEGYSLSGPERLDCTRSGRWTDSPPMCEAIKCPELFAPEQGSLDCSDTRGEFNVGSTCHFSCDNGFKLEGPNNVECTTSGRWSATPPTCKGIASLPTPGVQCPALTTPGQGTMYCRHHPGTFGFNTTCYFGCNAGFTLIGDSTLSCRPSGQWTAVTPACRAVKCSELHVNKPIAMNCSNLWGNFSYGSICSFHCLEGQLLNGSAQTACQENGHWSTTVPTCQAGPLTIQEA
# EXPERIMENT NOTES: EMSA; 5 mM Mg2+, Ca2+; EMSA: PBS with Ca2+ and Mg2+, 5 mM MgCl2, 1% NP40, room temperature 45 min, 4.6 pmol ESTA-1 with 0-19 pmol selectin in 10.5 ul, 6% gel run at 4 C; cell binding: 20 min at 37 C; pH not stated
# COND: protein: recombinant; label: none in EMSA (SYBR Gold stain); two hairpin loops (MFOLD)
pKd: −log10 of the molar value.
OBSERVABLE: pKd

Exercise: Let me know recorded pKd for ESTA-1 (TA-1) (XNA, monothiophosphate (Rp) at all dA except 5' primer region) DNA: CGCTCGGATCGATAAGCTTCGATCCCACTCTCCCGTTCACTTCTCCTCACGTCACGGATCCTCTAGAGCACTG , thanks.
Solution: ~4.89
